assay: Plasma pharmacokinetics after oral multi-dose anatabine polacrilex
Format: in vivo, Sprague-Dawley rats
conditionNotes: female, Sprague-Dawley, rat, plasma, oral, 0.2 mg/kg BW, Avg. Conc. of anatabine in plasma, dose group 0.2, female, 475 min
measuredAttribute: concentration at 475 min
Phrase the answer as number then unit, nothing more needed.

Which value of concentration at 475 min has been reported for C1=CCC(c2cccnc2)NC1 (racemic) [Anatabine, 1,2,3,6-tetrahydro-[2,3′]bipyridinyl] in the records?
8 ng/mL

###

assay: Plasma toxicokinetics after single i.v. bolus
Format: in vivo, Sprague-Dawley rats
conditionNotes: both sexes, Sprague-Dawley, rat, plasma, iv, 0.1 mg/kg, anatabine 0.1 mg/kg single i.v., rat plasma, M + F; read-out: t1/2 (converted)
measuredAttribute: half-life (h)
Numbers only, in h.

Query (molecule): C1=CCC(c2cccnc2)NC1 (racemic) [Anatabine, 1,2,3,6-tetrahydro-[2,3′]bipyridinyl] ; field requested: half-life
1.44

###

assay: Plasma toxicokinetics after single i.v. bolus
Type: in vivo, Sprague-Dawley rats
conditionNotes: both sexes, Sprague-Dawley, rat, plasma, intravenous, 1 mg/kg, Anatabine 1.0 mg/kg; male and female; 4 hr; read-out: Avg. Conc. rat plasma, combined male and female
measuredAttribute: concentration at 4 h (ng/mL)
One number for each entry, in ng/mL.

So what does the record say about concentration at 4 h for C1=CCC(c2cccnc2)NC1 (racemic) [Anatabine, 1,2,3,6-tetrahydro-[2,3′]bipyridinyl] ?
51.5

###

assay: Plasma toxicokinetics after single i.v. bolus
Assay type: in vivo, Sprague-Dawley rats
conditionNotes: both sexes, Sprague-Dawley, rat, plasma, intravenous, 1 mg/kg, Anatabine 1.0 mg/kg; male and female; 8 hr; read-out: Avg. Conc. rat plasma, combined male and female
measuredAttribute: concentration at 8 h (ng/mL)
Answers are plain numbers, in ng/mL.

Quick one: concentration at 8 h of C1=CCC(c2cccnc2)NC1 (racemic) [Anatabine, 1,2,3,6-tetrahydro-[2,3′]bipyridinyl] ?
12.7

###

assay: Plasma pharmacokinetics after oral multi-dose anatabine polacrilex
Format: in vivo, Sprague-Dawley rats
conditionNotes: female, Sprague-Dawley, rat, plasma, po, 6 mg/kg, female rats, after dose 1, mean; read-out: Tmax(1)
measuredAttribute: Tmax (min)
Answers are plain numbers, in min.

For C1=CCC(c2cccnc2)NC1 (racemic) [Anatabine, 1,2,3,6-tetrahydro-[2,3′]bipyridinyl] , what is its reported Tmax?
30

###

assay: Plasma pharmacokinetics after oral multi-dose anatabine polacrilex
Assay type: in vivo, Sprague-Dawley rats
conditionNotes: male, Sprague-Dawley, rat, plasma, oral, 2 mg/kg BW, Avg. Conc. of anatabine in plasma, dose group 2, male, 475 min
measuredAttribute: concentration at 475 min (ng/mL)
Numbers only, in ng/mL.

Suppose we examine the compound C1=CCC(c2cccnc2)NC1 (racemic) [Anatabine, 1,2,3,6-tetrahydro-[2,3′]bipyridinyl] ; what concentration at 475 min value has been reported?
97

###

assay: Plasma pharmacokinetics after oral multi-dose anatabine polacrilex
Format: in vivo, Sprague-Dawley rats
conditionNotes: female, Sprague-Dawley, rat, plasma, po, 6 mg/kg, female rats, after first dose, mean; read-out: t1/2,0→4 (converted)
measuredAttribute: half-life (h)
Numbers only, in h.

Request the reported half-life associated with C1=CCC(c2cccnc2)NC1 (racemic) [Anatabine, 1,2,3,6-tetrahydro-[2,3′]bipyridinyl]
1.82

###

assay: Plasma toxicokinetics after single i.v. bolus
Type: in vivo, Sprague-Dawley rats
conditionNotes: male, Sprague-Dawley, rat, plasma, iv, 0.1 mg/kg, anatabine 0.1 mg/kg single i.v., male rats; read-out: t1/2 (converted)
Procedure: Six rats (3 males and 3 females) were dosed per dose group. […] Plasma and brain homogenates were stored at −80° C. until analysis. […] Four aliquots of each dose level formulation were collected and stored at −80° C. […] The physical signs of each animal were monitored following administration of the test compound. […] Sample preparation. […] The amount of the test agent in the supernatant was determined by liquid chromatography tandem mass spectrometry (LC/MS/MS). […]
measuredAttribute: half-life (h)
Give bare numbers, in h.

Looking for the measured half-life of C1=CCC(c2cccnc2)NC1 (racemic) [Anatabine, 1,2,3,6-tetrahydro-[2,3′]bipyridinyl] , can you help?
1.25

###

assay: Plasma toxicokinetics after single i.v. bolus
Type: in vivo, Sprague-Dawley rats
conditionNotes: female, Sprague-Dawley, rat, plasma, intravenous, 0.75 mg/kg, Anatabine 0.75 mg/kg; female; 6 hr (1st 6 hr line); read-out: Avg. Conc. rat plasma
measuredAttribute: concentration at 6 h (ng/mL)
Give bare numbers, in ng/mL.

Sample C1=CCC(c2cccnc2)NC1 (racemic) [Anatabine, 1,2,3,6-tetrahydro-[2,3′]bipyridinyl] — what was its concentration at 6 h?
18.3

###

assay: Plasma pharmacokinetics after oral multi-dose anatabine polacrilex
Format: in vivo, Sprague-Dawley rats
conditionNotes: male, Sprague-Dawley, rat, plasma, oral, 0.2 mg/kg BW, Avg. Conc. of anatabine in plasma, dose group 0.2, male, 475 min
measuredAttribute: concentration at 475 min (ng/mL)
Answers are plain numbers, in ng/mL.

Sample C1=CCC(c2cccnc2)NC1 (racemic) [Anatabine, 1,2,3,6-tetrahydro-[2,3′]bipyridinyl] — what was its concentration at 475 min?
18

###

assay: Concentration in brain extracts after single i.v. bolus
Assay type: in vivo, Sprague-Dawley rats
conditionNotes: male, Sprague-Dawley, rat, brain, intravenous, 1 mg/kg, Anatabine 1.0 mg/kg; male; 6 hr; read-out: Avg. Conc. rat brain
measuredAttribute: concentration at 6 h (ng/g)
Numbers only, in ng/g.

What value of measured concentration at 6 h is listed for C1=CCC(c2cccnc2)NC1 (racemic) [Anatabine, 1,2,3,6-tetrahydro-[2,3′]bipyridinyl] ?
5

###

assay: Concentration in brain extracts after single i.v. bolus
Format: in vivo, Sprague-Dawley rats
conditionNotes: male, Sprague-Dawley, rat, brain, intravenous, 1 mg/kg, anatabine 1.0 mg/kg i.v., 24 hr, Male; read-out: Mean concentration in rat brain extracts
measuredAttribute: concentration at 24 h (ng/g)
Answers are plain numbers, in ng/g.

Given the entry C1=CCC(c2cccnc2)NC1 (racemic) [Anatabine, 1,2,3,6-tetrahydro-[2,3′]bipyridinyl] , report its measured concentration at 24 h.
2.5

###

assay: Plasma pharmacokinetics after oral multi-dose anatabine polacrilex
Assay type: in vivo, Sprague-Dawley rats
conditionNotes: female, Sprague-Dawley, rat, plasma, oral, 0.2 mg/kg, Anatabine Concentration in rat plasma, 475 min, individual animals 2A-2D
measuredAttribute: concentration at 475 min (ng/mL)
Answers are plain numbers, in ng/mL.

Can you share its concentration at 475 min? I mean this molecule: C1=CCC(c2cccnc2)NC1 (racemic) [Anatabine, 1,2,3,6-tetrahydro-[2,3′]bipyridinyl]
7

###

assay: Plasma toxicokinetics after single i.v. bolus
Format: in vivo, Sprague-Dawley rats
conditionNotes: female, Sprague-Dawley, rat, plasma, intravenous, 1 mg/kg, Anatabine 1.0 mg/kg; female; 8 hr; read-out: Avg. Conc. rat plasma
measuredAttribute: concentration at 8 h (ng/mL)
Answers are plain numbers, in ng/mL.

Data request, read-out concentration at 8 h, for C1=CCC(c2cccnc2)NC1 (racemic) [Anatabine, 1,2,3,6-tetrahydro-[2,3′]bipyridinyl]
17.7

###

assay: Plasma toxicokinetics after single i.v. bolus
Format: in vivo, Sprague-Dawley rats
conditionNotes: male, Sprague-Dawley, rat, plasma, intravenous, 0.75 mg/kg, Anatabine 0.75 mg/kg; male; 4 hr; read-out: Avg. Conc. rat plasma
measuredAttribute: concentration at 4 h (ng/mL)
One number for each entry, in ng/mL.

Can you look up the measured concentration at 4 h of C1=CCC(c2cccnc2)NC1 (racemic) [Anatabine, 1,2,3,6-tetrahydro-[2,3′]bipyridinyl] for me?
34.7

###

assay: Concentration in brain extracts after single i.v. bolus
Format: in vivo, Sprague-Dawley rats
conditionNotes: Sprague-Dawley, rat, brain, intravenous, 0.1 mg/kg, Concentration of anatabine in rat brain extract, Anatabine 0.1 mg/kg, Rat Brain, 24 hr, individual rats
measuredAttribute: concentration at 24 h (ng/mL)
Give bare numbers, in ng/mL.

# lookup: concentration at 24 h of C1=CCC(c2cccnc2)NC1 (racemic) [Anatabine, 1,2,3,6-tetrahydro-[2,3′]bipyridinyl]
3

###

assay: Concentration in brain extracts after single i.v. bolus
Type: in vivo, Sprague-Dawley rats
conditionNotes: male, Sprague-Dawley, rat, brain, intravenous, 0.1 mg/kg, Anatabine 0.1 mg/kg; male; 0.5 hr; read-out: Avg. Conc. rat brain
measuredAttribute: concentration at 0.5 h (ng/g)
One number for each entry, in ng/g.

Which concentration at 0.5 h is listed for C1=CCC(c2cccnc2)NC1 (racemic) [Anatabine, 1,2,3,6-tetrahydro-[2,3′]bipyridinyl] ?
20

###

assay: Plasma toxicokinetics after single i.v. bolus
Assay type: in vivo, Sprague-Dawley rats
conditionNotes: both sexes, Sprague-Dawley, rat, plasma, intravenous, 0.75 mg/kg, Anatabine 0.75 mg/kg; male and female; 6 hr (2nd 6 hr line), n=6; read-out: Avg. Conc. rat plasma, combined male and female
measuredAttribute: concentration at 6 h

Fill in the blank: the reported concentration at 6 h of C1=CCC(c2cccnc2)NC1 (racemic) [Anatabine, 1,2,3,6-tetrahydro-[2,3′]bipyridinyl] is ____.
22.5 ng/mL
